Molecular target: WT CYP121A1 (dimeric) (Mycobacterium tuberculosis, UniProt P9WPP7)
Sequence (P9WPP7 whole entry, looked up): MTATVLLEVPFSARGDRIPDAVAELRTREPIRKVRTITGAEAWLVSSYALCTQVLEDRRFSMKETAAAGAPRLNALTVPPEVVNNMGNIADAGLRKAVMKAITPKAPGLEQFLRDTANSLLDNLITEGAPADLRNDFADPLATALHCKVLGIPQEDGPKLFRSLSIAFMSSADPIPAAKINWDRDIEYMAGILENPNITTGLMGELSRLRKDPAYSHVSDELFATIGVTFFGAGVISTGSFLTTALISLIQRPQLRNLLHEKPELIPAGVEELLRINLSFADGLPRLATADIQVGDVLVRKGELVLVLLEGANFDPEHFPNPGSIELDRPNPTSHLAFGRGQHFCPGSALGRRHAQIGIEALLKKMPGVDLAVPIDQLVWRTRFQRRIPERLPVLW
Conditions: pH 7.4
MEASUREMENT_LABEL: Kd (mM)
Answers are plain numbers, in mM.

Reported Kd ( c1c[nH]cn1 [imidazole] ) = 46
